# system: Protein farnesyltransferase (Homo sapiens, UniProt P49354+P49356)
# test_summary: In vitro inhibitory activity against farnesyltransferase (FT)
The following compounds are shown together with reported IC50 values.
assay_readout: IC50

• Cn1cncc1C(OCc1c(-c2ccc3c(c2)OC(F)(F)O3)cc(C#N)c(=O)n1C)c1ccc(C#N)cc1 (centres undefined) = 0.69 nM
• Cn1cncc1C(OCc1ccc(C#N)cn1)c1ccc(C#N)c(-c2cccc3ccccc23)c1 (centres undefined) = 0.73 nM
• Cn1cncc1C(OCc1c(-c2cc(F)cc(Cl)c2)cc(C#N)c(=O)n1C)c1ccc(C#N)cc1 (centres undefined) = 0.7 nM
• Cn1cncc1C(OCc1c(-c2cccc(F)c2)cc(C#N)c(=O)n1C)c1ccc(C#N)cc1 (centres undefined) = 2.1 nM
• Cn1cncc1C(OCc1c(-c2cc(Cl)cc(Cl)c2)cc(C#N)c(=O)n1C)c1ccc(C#N)c(Br)c1 (centres undefined) = 0.42 nM
• Cn1cncc1C(OCc1c(-c2cccc(Cl)c2Cl)cc(C#N)c(=O)n1C)c1ccc(C#N)cc1 (centres undefined) = 6.1 nM
• CCn1c(COC(c2ccc(C#N)cc2)c2cncn2C)c(-c2cccc(Cl)c2)cc(C#N)c1=O (centres undefined) = 0.73 nM
• Cc1ncc(C(OCc2c(-c3cccc(Cl)c3)cc(C#N)c(=O)n2C)c2ccc(C#N)cc2)n1C (centres undefined) = 5.3 nM
• Cn1cncc1C(OCc1c(-c2ccc(F)cc2F)cc(C#N)c(=O)n1C)c1ccc(C#N)cc1 (centres undefined) = 5.5 nM

Every entry's value here was drawn from ChEMBL document CHEMBL1145881.
